# ASSAY PROCEDURE: Study #1 Phase 1: plasma and urine pharmacokinetics of Compound 1 and Compound 1A after IV infusion of Compound 1 (SAD, MAD, loading regimen)
# CONDITIONS: both, human, plasma, 600 mg, AUC(0-24), Cohort 10: Compound 1 600 mg/3 hr IV QD × 14 days, Day 1, geometric mean
ASSAY METRIC: AUC(0-t) (ng·h/mL)

Nc1ncccc1-c1cc(Cc2ccc(COc3ccccn3)cc2)no1 | 72700

###

# ASSAY PROCEDURE: Study #2 Phase 1: pharmacokinetics after single IV and single/multiple oral doses of Compound 1, absolute oral bioavailability;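 also: phase 1 study design: one IV dose, then escalating single oral doses, fed versus fasted single oral dosing, and once-daily oral dosing over 14 days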
# CONDITIONS: human, plasma, po, 500 mg, Cmax, Day 14, Cohort 4, 500 mg Oral Solution QD × 14 Days, fed, geometric mean
ASSAY METRIC: Cmax (ng/mL)

Nc1ncccc1-c1cc(Cc2ccc(COc3ccccn3)cc2)no1 | 12300
